# Test System: Leishmania CRK3–CYC6 complex (Leishmania mexicana)
# Sequence (O15851 1-311): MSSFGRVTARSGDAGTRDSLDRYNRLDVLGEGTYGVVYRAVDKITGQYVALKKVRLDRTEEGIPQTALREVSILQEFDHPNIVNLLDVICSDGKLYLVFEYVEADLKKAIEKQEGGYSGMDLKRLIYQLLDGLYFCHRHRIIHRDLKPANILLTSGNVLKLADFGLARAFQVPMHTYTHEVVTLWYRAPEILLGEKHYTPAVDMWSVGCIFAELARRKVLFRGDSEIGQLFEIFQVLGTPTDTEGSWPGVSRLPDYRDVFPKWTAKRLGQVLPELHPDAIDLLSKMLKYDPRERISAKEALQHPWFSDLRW
# Sequence (Q4Q4U0 1-303 partner): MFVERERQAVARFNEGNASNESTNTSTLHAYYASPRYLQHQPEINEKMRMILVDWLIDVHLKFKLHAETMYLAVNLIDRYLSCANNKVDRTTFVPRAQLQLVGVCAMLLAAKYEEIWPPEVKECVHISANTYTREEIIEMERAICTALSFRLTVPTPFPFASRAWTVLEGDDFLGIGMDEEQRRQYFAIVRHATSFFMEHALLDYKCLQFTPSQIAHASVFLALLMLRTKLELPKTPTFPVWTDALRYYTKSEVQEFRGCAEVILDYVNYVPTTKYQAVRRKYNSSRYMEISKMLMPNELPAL
# Assay Method Text: IMAP-FP primary screen
Reported Metric: IC50 (nM)
Please respond with the number in nM and leave the unit unwritten.

Enquiry: For the record CN[C@@H]1C[C@H]2O[C@@](C)([C@@H]1OC)n1c3ccccc3c3c4c(c5c6ccccc6n2c5c31)C(=O)NC4 [staurosporine, reference compound] , what value of IC50 is listed for Leishmania CRK3–CYC6 complex (Leishmania mexicana)?
Return: 29

====

# Assay Method Text: mammalian cell line counter-screen
# Type: cell-based
# Measurement Setup: human, MRC5 cells
Reported Metric: EC50

Enquiry: Suppose we examine the compound CC1(C)CC(=O)C=C(NC(=O)Nc2ccccc2)C1 ; what EC50 value has been reported?
Return: ≥ 50 µM
